Numbers sourced from patent US20230081426A1.

- Study Target: G12D-mutant human KRAS (amino acid residues 1-188) (Homo sapiens, UniProt P01116, G12D)
- Construct: G12D or G12C-mutant human KRAS (amino acid residues 1-188) with FLAG tag; made in house; host or cells: E. coli
- Sequence (P01116 1-188 isoform P01116-2 G12D): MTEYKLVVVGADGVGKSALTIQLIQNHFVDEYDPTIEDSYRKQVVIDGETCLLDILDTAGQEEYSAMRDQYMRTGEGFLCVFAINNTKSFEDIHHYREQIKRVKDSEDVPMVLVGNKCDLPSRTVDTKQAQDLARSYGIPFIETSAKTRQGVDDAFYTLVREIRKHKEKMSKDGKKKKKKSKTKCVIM
- Measurement Description: KRAS Binding Disruption Assay (AlphaScreen; biotinylated KRpep-2d analogue or RAF1-RBD), G12D
- Conditions Used: KRAS G12D; geometric mean; read-out: KRAS GMean IC50 (uM) MUTATION: G12D
Parameter: IC50. Scope: all listed entries.

Solved entries (count: 8):
COC1CN(c2nc(N3C[C@H]4CC[C@@H](C3)N4)c3ccc(-c4cc(O)cc5ccccc45)c(F)c3n2)C1 | 0.0001 to 10 µM
Cc1cccc2[nH]cc(-c3c(F)cc4c(N5C[C@H]6CC[C@@H](C5)N6)nc(OCC56CCCN5CCC6)nc4c3F)c12 | 0.0001 to 10 µM
NS(=O)(=O)CC(=O)N1[C@@H]2CC[C@H]1CN(c1nc(OCC34CCCN3CCC4)nc3c(F)c(-c4cc(O)cc5ccccc45)ccc13)C2 | 0.0001 to 10 µM
CN1CCC[C@H]1COc1nc(N2[C@@H]3CC[C@H]2CN(C(=O)CC(C)(C)O)C3)c2ccc(-c3cc(O)cc4ccccc34)cc2n1 | 10 to 100 µM
CN1CCC[C@H]1COc1nc(N2C[C@H]3CC[C@@H](C2)N3)c2ccc(-c3c[nH]c4ccccc34)c(F)c2n1 | 0.0001 to 10 µM
CN1CCC[C@H]1COc1nc(N2CC3CCC(C2)N3)c2ccc(-c3cc(Cl)cn4ccnc34)cc2n1 | 10 to 100 µM
CN1C[C@H](O)C[C@H]1COc1nc(N2C[C@H]3CC[C@@H](C2)N3)c2ccc(-c3cc(O)cc4ccccc34)c(F)c2n1 | 0.0001 to 10 µM
OCC1(COc2nc(N3C[C@H]4CC[C@@H](C3)N4)c3ccc(-c4cc(O)cc5ccccc45)c(F)c3n2)CCCC1 | 0.0001 to 10 µM

Value of IC50 reported for the molecule `CC(=O)NCCc1nc(N2C[C@H]3CC[C@@H](C2)N3)c2ccc(-c3cc(O)cc4ccccc34)c(F)c2n1` is 0.0001 to 10 µM
